Each item that follows carries a reported normalized RNA/DNA level with ligand (log10).
B1: library; a variant is named by its letters at N, in order (parent)
chain: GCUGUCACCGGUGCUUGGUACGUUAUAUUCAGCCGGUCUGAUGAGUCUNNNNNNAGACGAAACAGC

variants of: B1; assay: normalized RNA/DNA level with ligand (relative to sTRSVctl = 100) (log10 (% of sTRSVctl)); HEK293T overexpressing SLC46A1; ligand concentration (+) RNA-Seq: 6 mM; higher = less ribozyme self-cleavage, higher mRNA level; details: with (6R,S)-folinic acid; ligand present: yes
Experimental endpoint: normalized RNA/DNA level with ligand (log10)

AGUCAU
2.01
CGAAAG
1.98
ACAGGA
2.03
GGAAAG
2.02
GAUAUC
2.03
AGGAUG
2.04
CGGGGG
2.05
UCCCAA
1.97
ACCUCC
2.01
GAGGGG
2.04
CCCGAC
2.05
GUAUCC
2
GCUUCC
2.04
GGUCAC
2
CGACAG
1.97
UGGGCC
2.03
AUGUAU
2.03
AGAUCA
2
CGACGU
2.02
CUAAUA
1.98
UCUGCG
2.03
AAGGUU
2.02
AAGAUC
2.02
UCAUCC
2.05
UUAACU
2.02
GAACGU
2
AAGGCG
2.03
AUGCGU
1.99
UGUCCA
2.02
UUUGGC
2.04
GGACCA
2.02
UACGAU
2.02
ACACAU
2
UGCCAG
1.96
CUACCC
2
CGGAAA
1.98
GAGCCA
2.02
CACGCU
2.03
CUCUAA
2.01
ACACGA
2.02
GGAUUA
2.03
CACCAG
2

# credit: the supplement of paper PMC6757056
